Listed compounds paired with reported pIC50
target: ROCK2 (Homo sapiens, UniProt O75116); assay: ROCK2 kinase inhibition assay (LABCHIP 3000 Reader, FITC peptide substrate)
Sequence (O75116 whole entry, species assumed): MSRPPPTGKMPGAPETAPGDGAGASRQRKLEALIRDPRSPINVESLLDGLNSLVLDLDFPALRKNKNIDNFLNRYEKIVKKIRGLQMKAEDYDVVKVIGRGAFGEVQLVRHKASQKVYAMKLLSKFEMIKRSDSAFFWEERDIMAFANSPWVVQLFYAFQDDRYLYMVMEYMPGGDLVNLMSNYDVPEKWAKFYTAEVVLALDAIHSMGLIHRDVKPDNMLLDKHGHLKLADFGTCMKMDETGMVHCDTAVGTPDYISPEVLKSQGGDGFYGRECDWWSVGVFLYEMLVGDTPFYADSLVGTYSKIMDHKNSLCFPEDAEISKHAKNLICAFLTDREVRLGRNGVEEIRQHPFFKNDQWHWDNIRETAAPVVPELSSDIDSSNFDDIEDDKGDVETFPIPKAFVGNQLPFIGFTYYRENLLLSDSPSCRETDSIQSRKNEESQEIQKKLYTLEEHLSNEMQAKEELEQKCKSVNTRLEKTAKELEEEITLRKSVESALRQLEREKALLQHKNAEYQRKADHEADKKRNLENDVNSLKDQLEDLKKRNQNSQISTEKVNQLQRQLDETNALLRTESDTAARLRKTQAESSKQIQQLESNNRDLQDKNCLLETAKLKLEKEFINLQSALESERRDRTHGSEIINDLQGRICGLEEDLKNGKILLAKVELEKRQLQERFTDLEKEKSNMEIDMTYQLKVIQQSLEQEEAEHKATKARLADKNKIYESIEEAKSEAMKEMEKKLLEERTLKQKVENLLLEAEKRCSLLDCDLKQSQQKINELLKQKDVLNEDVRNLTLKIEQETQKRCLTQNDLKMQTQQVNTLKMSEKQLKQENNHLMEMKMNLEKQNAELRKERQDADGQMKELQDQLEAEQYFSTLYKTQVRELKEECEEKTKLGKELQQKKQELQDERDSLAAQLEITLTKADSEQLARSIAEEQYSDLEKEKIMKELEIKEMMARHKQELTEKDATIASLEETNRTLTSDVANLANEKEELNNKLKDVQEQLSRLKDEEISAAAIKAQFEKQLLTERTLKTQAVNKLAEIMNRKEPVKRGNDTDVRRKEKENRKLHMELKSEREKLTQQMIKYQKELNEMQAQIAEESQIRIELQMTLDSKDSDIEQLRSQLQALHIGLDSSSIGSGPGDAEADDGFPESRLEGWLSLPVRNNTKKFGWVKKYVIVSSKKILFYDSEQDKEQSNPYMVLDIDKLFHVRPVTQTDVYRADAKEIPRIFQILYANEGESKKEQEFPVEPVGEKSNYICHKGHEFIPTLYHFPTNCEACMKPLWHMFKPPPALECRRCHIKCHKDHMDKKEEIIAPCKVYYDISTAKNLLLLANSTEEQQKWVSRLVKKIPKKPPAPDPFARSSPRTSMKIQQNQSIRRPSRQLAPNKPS
pIC50: −log10 of the molar value.

Use these answered entries as a reference point.
>>> measurement("NC(=O)c1cccnc1O[C@H]1CC2(C[C@H](NC(=O)c3cnc4cc(N5CC[C@@H](F)C5)ccn34)C2)C1 (some centres unmarked) [Example 329]")
"> 8.30"
>>> measurement("NC(=O)c1cccnc1OC1CC2(CC(NC(=O)c3cnn(-c4ccccc4Cl)c3)C2)C1 (centres unmarked) [Example 397]")
"7.30 to 8.30"

Endpoint output: pIC50 of COc1ccc(OC2CC3(CC(NC(=O)c4cnn5cc(OCC(C)(C)O)ccc45)C3)C2)c(C(N)=O)c1 (centres unmarked) [Example 212] . Value? 5.60 to 6.60

Endpoint output: pIC50 of NC(=O)c1cccnc1O[C@H]1CC2(C[C@H](NC(=O)c3cnn4cc(OC5CC(F)(F)C5)ccc34)C2)C1 (some centres unmarked) [Example 350] . Value? 7.30 to 8.30

Endpoint output: pIC50 of COCCOCCOc1ccc2c(C(=O)N[C@H]3CC4(C3)C[C@H](Oc3ncccc3C(N)=O)C4)cnn2c1 (some centres unmarked) [Example 121] . Value? 7.30 to 8.30

* * *

Listed molecules paired with reported pIC50
biological target: ROCK2 (Homo sapiens, UniProt O75116); assay: ROCK2 kinase inhibition assay (LABCHIP 3000 Reader, FITC peptide substrate)
pIC50: −log10 of the molar value. Structures can show the parent of a compound that is named as a salt.

Use these answered entries as a reference point.
>>> measurement("[H][C@]1(Oc2ncccc2C(N)=O)C[C@@]2(C[C@H](NC(=O)c3cn4nc(Cl)ccc4n3)C2)C1 (some centres unmarked)")
"5.60 to 6.60"
>>> measurement("NC(=O)c1ccccc1OC1CC2(CC(NC(=O)c3cnn4c(C5CC5)c(OCCC(F)(F)F)ccc34)C2)C1 (centres unmarked)")
"> 8.30"
>>> measurement("NC(=O)c1cccnc1O[C@H]1CC2(C[C@H](NC(=O)c3cnn4cc(OCC5(O)CC(F)(F)C5)ccc34)C2)C1 (some centres unmarked) [Example 413, TFA]")
"7.30 to 8.30"
>>> measurement("Cc1nc2cc(-c3cc(C#N)cc(C(=O)N[C@H]4CC5(C4)C[C@H](Oc4ncccc4C(N)=O)C5)c3)ccc2s1 (some centres unmarked)")
"> 8.30"
>>> measurement("CC(C)(O)COc1ccc2c(C(=O)NC3CC4(C3)CC(Oc3cc(CCCCN)ccc3C(N)=O)C4)cnn2c1 (centres unmarked)")
"> 8.30"

Endpoint output: pIC50 of NC(=O)c1cccnc1O[C@H]1CC2(C[C@H](NC(=O)c3nc(-c4nc5ccccc5s4)cs3)C2)C1 (some centres unmarked) . Value? 5.60 to 6.60

Endpoint output: pIC50 of CC(C)(O)COc1ccc2c(C(=O)NC3CC4(C3)CC(Oc3cc(-c5cccc(CN)c5)ccc3C(N)=O)C4)cnn2c1 (centres unmarked) . Value? 7.30 to 8.30

* * *

Listed compounds paired with reported IC50
target: ROCK2 (Homo sapiens, UniProt O75116); assay: ROCK2 kinase inhibition assay (LABCHIP 3000 Reader, FITC peptide substrate)
Where a name gives a salt, the structure may show the parent alone.

>>> measurement("CC(C)(O)COc1ccc2c(C(=O)NC3CC4(C3)CC(Oc3cc(-c5cnn(C6CC6)c5)ccc3C(N)=O)C4)cnn2c1 (centres unmarked)")
"5 to 50 nM"
>>> measurement("[H][C@]1(Oc2ncccc2C(N)=O)C[C@@]2(C[C@H](NC(=O)c3cnn(-c4ccc(Br)cc4)c3C)C2)C1 (some centres unmarked)")
"5 to 50 nM"
>>> measurement("CC(C)(O)COc1ccn2c(C(=O)N[C@H]3CC4(C3)C[C@H](Oc3ncccc3C(N)=O)C4)cnc2c1C1CC1 (some centres unmarked)")
"< 5 nM"
>>> measurement("COc1cc(C(=O)N[C@H]2CC3(C2)C[C@H](Oc2ncccc2C(N)=O)C3)ccc1-n1cnc(C)c1 (some centres unmarked)")
"50 to 250 nM"
>>> measurement("[H][C@]1(Oc2cnccc2C(N)=O)C[C@@]2(C[C@H](NC(=O)c3cnn4cc(OCC(C)(C)O)ccc34)C2)C1 (some centres unmarked)")
"50 to 250 nM"

Kindly review the next compound as well.
Endpoint output: IC50 of [H][C@]1(Oc2ncccc2C(N)=O)C[C@@]2(C[C@H](NC(=O)c3nn(C(C)(C)C(N)=O)c4cc(OCCC(F)(F)F)ccc34)C2)C1 (some centres unmarked) [Example 410, TFA] . Value? 5 to 50 nM

* * *

molecular target: ROCK2 (Homo sapiens, UniProt O75116); assay: ROCK2 kinase inhibition assay (LABCHIP 3000 Reader, FITC peptide substrate);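 further: rho kinase reaction read by separating phosphorylated from unphosphorylated peptide on chip, with inhibition of kinase activity computed per concentration across a dose-response series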
pIC50: −log10 of the molar value.
EXPERIMENTAL ENDPOINT: pIC50

Use these answered entries as a reference point.
>>> measurement("NC(=O)c1cccnc1O[C@H]1CC2(C[C@H](NC(=O)c3nn(Cc4ccccc4)c4ccccc34)C2)C1 (some centres unmarked) [Example 132]")
"7.30 to 8.30"
>>> measurement("[H][C@]1(Oc2ncccc2C(N)=O)C[C@@]2(C[C@H](NC(=O)c3nn(CC(C)(C)O)c4ccc(-c5cnn(C)c5)cc34)C2)C1 (some centres unmarked) [Example 50]")
"7.30 to 8.30"
>>> measurement("[2H]C([2H])([2H])n1cc(-c2ccc3c(C(=O)N[C@H]4CC5(C4)C[C@H](Oc4ncccc4C(N)=O)C5)nn(C(F)F)c3c2)cn1 (some centres unmarked) [Example 111]")
"> 8.30"
>>> measurement("NC(=O)c1cccnc1OC1CC2(CC(NC(=O)c3cnn4cc(OC(CF)CF)ccc34)C2)C1 (centres unmarked) [Example 9]")
"7.30 to 8.30"
>>> measurement("NC(=O)c1cccnc1O[C@H]1CC2(C[C@H](NC(=O)c3cccc(Cn4ccnc4)c3)C2)C1 (some centres unmarked) [Example 141]")
"5.60 to 6.60"

Write down the reported pIC50 of CS(=O)(=O)CCCOc1ccc2c(C(=O)NC3CC4(C3)CC(Oc3ccccc3C(N)=O)C4)cnn2c1C1CC1 (centres unmarked) [Example 30] , test system: ROCK2 (Homo sapiens, UniProt O75116). > 8.30

Write down the reported pIC50 of COc1ccc(C(N)=O)c(OC2CC3(CC(NC(=O)c4cnn5cc(OCC(C)(C)O)ccc45)C3)C2)c1 (centres unmarked) [Example 210] , test system: ROCK2 (Homo sapiens, UniProt O75116). 7.30 to 8.30

Write down the reported pIC50 of [H][C@]1(Oc2ccccc2C(N)=O)C[C@@]2(C[C@H](NC(=O)c3cnn4c(C5CC5)c(OCC(C)(C)O)ccc34)C2)C1 (some centres unmarked) [Example 15] , test system: ROCK2 (Homo sapiens, UniProt O75116). > 8.30

* * *

molecular target: UniProtKB O75116; test: ROCK2 kinase inhibition assay (LABCHIP 3000 Reader, FITC peptide substrate)
Counter-ions that a name gives are not always drawn.
EXPERIMENTAL ENDPOINT: IC50

>>> measurement("CN1CCN(c2ccn3c(C(=O)N[C@H]4CC5(C4)C[C@H](Oc4ccccc4C(N)=O)C5)cnc3c2)CC1 (stereo partly shown)")
"5 to 50 nM"
>>> measurement("[H][C@]1(Oc2ncccc2C(N)=O)C[C@@]2(C[C@H](NC(=O)c3cc(C#N)cc(-c4cnc(C)s4)c3)C2)C1 (stereo partly shown) [Example 180, TFA]")
"< 5 nM"
>>> measurement("Cn1cc(-c2ccc3c(C(=O)N[C@H]4CC5(C4)C[C@H](Oc4ncccc4C(N)=O)C5)nnn3c2)cn1 (stereo partly shown)")
"< 5 nM"
>>> measurement("NC(=O)c1cccnc1O[C@H]1CC2(C[C@H](NC(=O)c3ccc(Cl)c(S(N)(=O)=O)c3)C2)C1 (stereo partly shown)")
"5 to 50 nM"
>>> measurement("Cc1c(C(=O)NC2CC3(C2)CC(Oc2ccccc2C(N)=O)C3)cnn1-c1ccccc1 (stereo not shown)")
"50 to 250 nM"
>>> measurement("COC(=O)N1CC(Oc2ccc3c(C(=O)N[C@H]4CC5(C4)C[C@H](Oc4ncccc4C(N)=O)C5)cnn3c2)C1 (stereo partly shown)")
"5 to 50 nM"

Kindly review the next compound as well.
Endpoint output: IC50 of N#Cc1ccn2c(C(=O)N[C@H]3CC4(C3)C[C@H](Oc3ncccc3C(N)=O)C4)cnc2c1 (stereo partly shown) . Value? 50 to 250 nM

* * *

target: UniProtKB O75116; assay: ROCK2 kinase inhibition assay (LABCHIP 3000 Reader, FITC peptide substrate)
pIC50: −log10 of the molar value.
EXPERIMENTAL ENDPOINT: pIC50

Endpoint output: pIC50 of [H][C@]1(Oc2ncccc2C(N)=O)C[C@@]2(C[C@H](NC(=O)c3cccc(-c4cccc(S(C)(=O)=O)c4)c3)C2)C1 (stereo partly drawn) [Example 55] . Value? 6.60 to 7.30
